Data origin: patent US20080213277A1

experimental_system: T1, human hepcidin (SEQ ID NO: 9), mature, correctly folded (human, not fully specified)
T1 construct: 25-residue mature peptide with four disulfides (C7-C23, C10-C13, C11-C19, C14-C22); Recombinant (E. coli or CHO) or synthetic, by assay; also called rhHepc; shHepc
T1 peptide: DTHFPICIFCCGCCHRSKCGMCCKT
experiment_notes: BIAcore solution equilibrium: fixed antibody incubated with varied hepcidin, free antibody read on immobilized hepcidin chip

binder: murine anti-human hepcidin monoclonal antibody 2.41 (antibody, V domains shown, Mouse hybridoma monoclonal) VH: QIQLVQSGPELKKPGETVKISCKASGYTFTTYGMSWVKQAPGKGLKWMGWINTSSGVPTYADDFMGRFAFSLETSASTAYLQINNLKNEDTATYFCARDRYYGEVAYWGQGTLVTVSA VL: DIVLTQSPASLAVSLGQRATISCRASESVDSFGNSFMHWYQLKPGQPPKLLIYRASNLESGIPARFSGSGSRTDFTLTINPVEADDVAIYYCQQSNEEYTFGGGTKLEIK
Kd [nM]: 0.05

binder: murine anti-human hepcidin monoclonal antibody Ab43 (antibody, V domains shown, Mouse hybridoma monoclonal; also called mAB 43) VH: QIQLVQSGPELKKPGETVKISCKASGYTFTTYGMSWVKQAPGKGLKWMGWINTYSGVPTYADDFKGRFAFSLETSASTAYLQINNLKNEDTATYFCASLWYYGRAFDYWGQGTTLTVSS VL: NIVLTQSPASLAVSLGQRATISCRASESVDSYGNSFMHWYQQKPGQPPKLLIYLASNLESGVPARFSGSGSRTDFTLTIDPVEADDAATYYCQQNNEDRTFGGGTKLEIK
Kd [nM]: 0.56

binder: murine anti-human hepcidin monoclonal antibody 2.7 (antibody, V domains shown, Mouse hybridoma monoclonal; Murine IgG1 was used as its isotypic control; also called Ab2.7; Ab 2.7) VH: QIQLVQSGPELKKPGETVKISCKASGYTFTTYGMSWVKQAPGKGLKWMGWINTYSGVPTYADDFKGRFAFSLETSASTAYLQINNLKNEDTATYFCGRDHYYGEVAYWGQGTLVTVSA VL: DIVLTQSPASLAVSLGQRATISCRASESVDSYGNSFMHWYQQKPGQPPKLLIYRASNLESGIPARFSGSGSRTDFTLTINPVEADDVATYYCHQSNEEYTFGGGTKLEIK
Kd [nM]: 0.11

binder: rat anti-human hepcidin monoclonal antibody R9 (antibody, V domains shown, Rat hybridoma monoclonal; also called mAb R9) VH: QVTLKESGPGILQPSQTLSLTCSFSGFSLSTSGICVSWIRQPSGKGLEWLATICWEDSKGYNPSLKNRLTISKDTSNNQAFLKITSVDTADTAIYYCARPLNYGGYSELELDYWGQGVMVTVSS VL: DIQMTQSPSLLSASVGDRVTLSCKASQNIYKYLNWYQQKLGEAPKLLIYYTNSLQTGIPSRFSGSGSGTDFTLTISSLQPEDVATYYCYQYNSGPTFGAGTKLELK
Kd [nM]: 21
